All values here come from paper PMC10066050.

- Test system: OVCA429 cells
- Assay type: cell-based, human
- Test conditions: 24 h
Where no end group is shown, it is not given here.
Assay endpoint: IC50

Lab note: sequence FFKRLRNKFRLMRQAWKDYR [CS-piscidin] tested on OVCA429 cells; recorded IC50 was 27.4 µM
